ASSAY_TARGET: Neuropeptide Y receptor type 2 (Homo sapiens, UniProt P49146)
Sequence (P49146 whole entry): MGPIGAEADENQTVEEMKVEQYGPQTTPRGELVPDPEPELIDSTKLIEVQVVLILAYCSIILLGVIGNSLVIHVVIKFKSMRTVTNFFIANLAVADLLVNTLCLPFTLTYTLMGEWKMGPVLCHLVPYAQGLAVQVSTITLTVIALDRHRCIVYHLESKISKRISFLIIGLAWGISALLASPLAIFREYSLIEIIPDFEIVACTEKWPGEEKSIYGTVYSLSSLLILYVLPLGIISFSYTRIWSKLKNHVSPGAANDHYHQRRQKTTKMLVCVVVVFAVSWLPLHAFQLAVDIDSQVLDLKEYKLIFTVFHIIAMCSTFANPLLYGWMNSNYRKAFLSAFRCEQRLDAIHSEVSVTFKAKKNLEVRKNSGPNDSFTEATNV
ASSAY_OVERVIEW: Displacement of [3H]UR-MK299 from human neuropeptide Y Y2 receptor expressed in CHO cells measured after 90 mins by scintillation counting analysis
Type: cell-based
COND: read-out: Ki
Starred links: 1 amine or outer side, 2 acyl side, 3 side chain; linkers in the order of their positions; H or OH if unused. Residues, ends and D or L forms follow the SMILES beside them. Groups on a side chain read outwards from the residue. *: point of attachment. Suc = O=C(CCC(=O)[*:2])[*:1]; NH(CH2)4NH2 = NCCCCN*; CO = O=C([*:1])[*:2]
QUANTITY_NAME: Ki

MOLECULE	Ki
CC(C)C[C@H](NC(=O)[C@H](CCCNC(=N)NC(=O)NCCCCN)NC(=O)[C@H](CCCNC(=N)N)NC(=O)CCC(=O)O)C(=O)N[C@@H](CCCNC(=N)N)C(=O)N[C@@H](Cc1ccc(O)cc1)C(N)=O (Suc-RR([CO-NH(CH2)4NH2])LRY-NH2)	> 10 µM

Any idea what its Ki is? The molecule is CC(C)C[C@H](NC(=O)[C@@H]1CCCNC(=N)NC(=O)NCCCCNC(=O)CCC(=O)N[C@@H](CCCNC(=N)N)C(=O)N1)C(=O)N[C@@H](CCCNC(=N)N)C(=O)N[C@@H](Cc1ccc(O)cc1)C(N)=O (HELM PEPTIDE1{R.[N=C(NCCC[C@H](N[*:1])C(=O)[*:2])N[*:3]].L.R.Y.[am]}|CHEM1{[O=C(CCC(=O)[*:1])NCCCCNC(=O)[*:2]]}$PEPTIDE1,CHEM1,1:R1-1:R1|PEPTIDE1,CHEM1,2:R3-1:R2$$$V2.0) > 3 µM

---

ASSAY_TARGET: Neuropeptide Y receptor type 4 (Homo sapiens, UniProt P50391)
Sequence (P50391 whole entry): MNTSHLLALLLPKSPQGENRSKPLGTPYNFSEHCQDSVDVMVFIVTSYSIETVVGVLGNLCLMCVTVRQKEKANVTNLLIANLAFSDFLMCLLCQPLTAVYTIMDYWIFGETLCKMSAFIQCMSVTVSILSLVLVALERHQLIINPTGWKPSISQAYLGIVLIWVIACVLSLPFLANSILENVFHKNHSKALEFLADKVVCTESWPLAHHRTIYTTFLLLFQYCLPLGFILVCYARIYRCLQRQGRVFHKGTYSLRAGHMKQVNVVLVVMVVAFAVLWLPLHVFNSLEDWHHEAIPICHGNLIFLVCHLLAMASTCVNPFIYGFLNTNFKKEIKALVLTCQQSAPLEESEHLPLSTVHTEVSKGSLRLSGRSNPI
ASSAY_OVERVIEW: Agonist activity at human neuropeptide Y Y4 receptor expressed in CHO-mtAEQ cells co-expressing Gqi5 by calcium aequorin assay
Type: functional, cell-based
Residues, ends and D or L forms follow the SMILES beside them.
Entries whose EC50 is below 20 nM take satisfied; entries at or above 20 nM take not satisfied.

Solved cases (3 shown):
MOLECULE	LABEL_CLASS
CC(C)C[C@H](NC(=O)[C@H](CCCNC(=N)NC(=O)NCCCCN)NC(=O)[C@H](Cc1c[nH]c2ccccc12)NC(=O)[C@H](CCCNC(=N)N)NC(=O)CCC(=O)O)C(=O)N[C@@H](CCCNC(=N)N)C(=O)N[C@@H](Cc1ccc(O)cc1)C(N)=O	not satisfied
N=C(N)NCCC[C@@H]1NC(=O)CCC(=O)NCCCNC(=O)NC(=N)NCCC[C@@H](C(=O)N[C@@H](Cc2c[nH]c3ccccc23)C(=O)N[C@@H](CCCNC(=N)N)C(=O)N[C@@H](Cc2ccc(O)cc2)C(N)=O)NC(=O)[C@H](Cc2ccc(O)cc2)NC1=O (HELM PEPTIDE1{R.Y.[N=C(NCCC[C@H](N[*:1])C(=O)[*:2])N[*:3]].W.R.Y.[am]}|CHEM1{[O=C(CCC(=O)[*:1])NCCCNC(=O)[*:2]]}$PEPTIDE1,CHEM1,1:R1-1:R1|PEPTIDE1,CHEM1,3:R3-1:R2$$$V2.0)	not satisfied
CC(C)C[C@H](NC(=O)[C@@H]1CCCNC(=N)NC(=O)NCCCNC(=O)CCC(=O)N[C@@H](CCCNC(=N)N)C(=O)N[C@@H](Cc2ccc(O)cc2)C(=O)N1)C(=O)N[C@@H](CCCNC(=N)N)C(=O)N[C@@H](Cc1ccc(O)cc1)C(N)=O	satisfied

Turning now to a further molecule:
Bench note: check whether CC(C)C[C@H](NC(=O)[C@H](CCCNC(=N)N)NC(=O)[C@H](Cc1ccc(O)cc1)NC(=O)[C@H](CCCNC(=N)N)NC(=O)CCC(=O)O)C(=O)N[C@@H](CCCNC(=N)NC(=O)NCCCN)C(=O)N[C@@H](Cc1ccc(O)cc1)C(N)=O shows EC50 below 20 nM not satisfied
